subject of test: T1, gp130 on HepG2 B6 cells (UniProt P40189 23-918, limits assumed)
T1 sequence (looked up): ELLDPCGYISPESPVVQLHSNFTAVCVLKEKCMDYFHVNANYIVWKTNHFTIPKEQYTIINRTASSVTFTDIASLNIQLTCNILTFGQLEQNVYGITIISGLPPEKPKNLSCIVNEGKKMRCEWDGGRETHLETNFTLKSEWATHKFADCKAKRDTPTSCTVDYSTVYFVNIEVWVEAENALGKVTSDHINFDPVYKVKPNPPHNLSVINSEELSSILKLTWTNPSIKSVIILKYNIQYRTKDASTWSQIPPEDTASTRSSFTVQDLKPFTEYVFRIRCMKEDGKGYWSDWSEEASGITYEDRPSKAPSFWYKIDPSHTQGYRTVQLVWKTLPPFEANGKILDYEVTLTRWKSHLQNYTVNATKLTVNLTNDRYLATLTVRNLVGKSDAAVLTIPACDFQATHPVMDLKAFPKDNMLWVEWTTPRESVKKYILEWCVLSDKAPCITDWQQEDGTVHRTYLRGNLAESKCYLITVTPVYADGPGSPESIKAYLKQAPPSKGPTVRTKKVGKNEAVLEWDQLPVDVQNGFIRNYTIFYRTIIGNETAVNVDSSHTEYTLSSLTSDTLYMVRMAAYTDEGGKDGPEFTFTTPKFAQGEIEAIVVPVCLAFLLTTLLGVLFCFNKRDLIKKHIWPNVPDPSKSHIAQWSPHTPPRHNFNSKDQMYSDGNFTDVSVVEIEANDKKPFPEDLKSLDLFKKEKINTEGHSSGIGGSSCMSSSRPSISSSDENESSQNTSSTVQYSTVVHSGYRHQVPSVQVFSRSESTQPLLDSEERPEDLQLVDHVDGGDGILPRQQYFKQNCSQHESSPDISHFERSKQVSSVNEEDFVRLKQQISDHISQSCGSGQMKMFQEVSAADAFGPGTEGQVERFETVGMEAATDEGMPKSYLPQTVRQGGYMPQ
experimental protocol: cell-based or functional assay
Recorded sPAP HepG2 B6 assay: Expt 2 % (EC50 as % of wild type EC50) values for a group of binders are listed next.
measure: sPAP HepG2 B6 assay: Expt 2 % (EC50 as % of wild type EC50) (%)

{"binder": "OSM-GST mutant N117A (ligand, not shown: a dimerising Fc or GST; large carriers; small tags and cut ends, Alanine mutant of m4; also called (18)N117A; 18 N117A) AAIGSCSKEYRVLLGQLQKQTDLMQDTSRLLDPYIRIQGLDVPKLREHCRERPGAFPSEETLRGLGRRGFLQTLNATLGCVLHRLADLEQRLPKAQDLERSGLNIEDLEKLQMARPAILGLRNNIYCMAQLLDNSDTAEPTKAGRGASQPPTPTPASDAFQRKLEGCRFLHGYHRFMHSVGRVFSKWGESPNRSRR", "experimental result": 132}
{"binder": "OSM-GST mutant T21A (ligand, not shown: a dimerising Fc or GST; large carriers; small tags and cut ends, Alanine mutant of m4; also called (14)T21A; 14 T21A) AAIGSCSKEYRVLLGQLQKQADLMQDTSRLLDPYIRIQGLDVPKLREHCRERPGAFPSEETLRGLGRRGFLQTLNATLGCVLHRLADLEQRLPKAQDLERSGLNIEDLEKLQMARPNILGLRNNIYCMAQLLDNSDTAEPTKAGRGASQPPTPTPASDAFQRKLEGCRFLHGYHRFMHSVGRVFSKWGESPNRSRR", "experimental result": 33}
